Target or system: JAK3 (Homo sapiens)
Sequence (P52333 whole entry): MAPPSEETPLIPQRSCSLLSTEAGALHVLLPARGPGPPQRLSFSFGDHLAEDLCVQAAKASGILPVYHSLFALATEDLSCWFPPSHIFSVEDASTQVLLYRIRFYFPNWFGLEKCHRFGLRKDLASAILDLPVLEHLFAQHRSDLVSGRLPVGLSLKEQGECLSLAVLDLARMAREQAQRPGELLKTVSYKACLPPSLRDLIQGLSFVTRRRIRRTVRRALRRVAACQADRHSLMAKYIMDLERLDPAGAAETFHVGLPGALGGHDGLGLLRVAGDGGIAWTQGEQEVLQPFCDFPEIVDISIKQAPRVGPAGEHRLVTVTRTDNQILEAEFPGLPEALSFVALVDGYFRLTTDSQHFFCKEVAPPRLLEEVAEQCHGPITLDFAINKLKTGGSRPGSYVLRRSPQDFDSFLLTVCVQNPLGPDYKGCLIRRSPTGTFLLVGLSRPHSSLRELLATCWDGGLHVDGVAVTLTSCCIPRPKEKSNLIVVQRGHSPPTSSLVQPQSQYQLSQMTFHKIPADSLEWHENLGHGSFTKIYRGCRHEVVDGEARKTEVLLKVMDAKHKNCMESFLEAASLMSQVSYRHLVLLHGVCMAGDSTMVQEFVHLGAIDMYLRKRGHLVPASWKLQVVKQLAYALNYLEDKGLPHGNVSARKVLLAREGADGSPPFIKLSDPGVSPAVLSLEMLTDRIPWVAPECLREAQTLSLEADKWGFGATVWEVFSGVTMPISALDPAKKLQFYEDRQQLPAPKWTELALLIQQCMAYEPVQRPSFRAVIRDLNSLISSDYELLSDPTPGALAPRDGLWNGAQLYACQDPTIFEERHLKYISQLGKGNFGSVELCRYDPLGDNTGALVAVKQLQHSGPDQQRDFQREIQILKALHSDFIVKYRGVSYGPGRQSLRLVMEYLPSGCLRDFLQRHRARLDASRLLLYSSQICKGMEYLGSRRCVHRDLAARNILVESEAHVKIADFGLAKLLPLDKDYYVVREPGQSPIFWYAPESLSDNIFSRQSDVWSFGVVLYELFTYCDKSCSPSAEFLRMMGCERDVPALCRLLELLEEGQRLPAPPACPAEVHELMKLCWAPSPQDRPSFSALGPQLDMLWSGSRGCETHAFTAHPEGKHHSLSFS
Protocol notes: Z'-LYTE enzyme activity assay (SelectScreen Kinase Profiling), JAK3
Run conditions: IC50 JAK3, ATP at 1 mM
// boundary case: IC50 equal to 500 nM maps to false; strictly smaller maps to true

Input: Say whether its IC50 is strictly beneath 500 nM. Entry: CCS(=O)(=O)NC1CC2(C1)CC(CC#N)(n1cc(-c3ncnc4[nH]ccc34)cn1)C2 (stereo not shown)
Output: true

Input: Say whether its IC50 is strictly beneath 500 nM. Entry: N#CCC1(n2cc(-c3ncnc4[nH]ccc34)cn2)CC2(CC(NS(=O)(=O)C(F)(F)F)C2)C1 (stereo not shown)
Output: true

Input: Say whether its IC50 is strictly beneath 500 nM. Entry: CC(C)(C)NS(=O)(=O)NC1CC2(C1)CC(CC#N)(n1cc(-c3ncnc4[nH]ccc34)cn1)C2 (stereo not shown)
Output: false

Input: Say whether its IC50 is strictly beneath 500 nM. Entry: `N#CCC1(n2cc(-c3ncnc4[nH]ccc34)cn2)CCS(=O)(=O)CC1`
Output: false

Input: Say whether its IC50 is strictly beneath 500 nM. Entry: `CCS(=O)(=O)N1CCC2(CC1)CCC(CC#N)(n1cc(-c3ncnc4[nH]ccc34)cn1)CC2`
Output: true

* * *

Target or system: JAK2 (Homo sapiens)
Sequence (O60674 whole entry): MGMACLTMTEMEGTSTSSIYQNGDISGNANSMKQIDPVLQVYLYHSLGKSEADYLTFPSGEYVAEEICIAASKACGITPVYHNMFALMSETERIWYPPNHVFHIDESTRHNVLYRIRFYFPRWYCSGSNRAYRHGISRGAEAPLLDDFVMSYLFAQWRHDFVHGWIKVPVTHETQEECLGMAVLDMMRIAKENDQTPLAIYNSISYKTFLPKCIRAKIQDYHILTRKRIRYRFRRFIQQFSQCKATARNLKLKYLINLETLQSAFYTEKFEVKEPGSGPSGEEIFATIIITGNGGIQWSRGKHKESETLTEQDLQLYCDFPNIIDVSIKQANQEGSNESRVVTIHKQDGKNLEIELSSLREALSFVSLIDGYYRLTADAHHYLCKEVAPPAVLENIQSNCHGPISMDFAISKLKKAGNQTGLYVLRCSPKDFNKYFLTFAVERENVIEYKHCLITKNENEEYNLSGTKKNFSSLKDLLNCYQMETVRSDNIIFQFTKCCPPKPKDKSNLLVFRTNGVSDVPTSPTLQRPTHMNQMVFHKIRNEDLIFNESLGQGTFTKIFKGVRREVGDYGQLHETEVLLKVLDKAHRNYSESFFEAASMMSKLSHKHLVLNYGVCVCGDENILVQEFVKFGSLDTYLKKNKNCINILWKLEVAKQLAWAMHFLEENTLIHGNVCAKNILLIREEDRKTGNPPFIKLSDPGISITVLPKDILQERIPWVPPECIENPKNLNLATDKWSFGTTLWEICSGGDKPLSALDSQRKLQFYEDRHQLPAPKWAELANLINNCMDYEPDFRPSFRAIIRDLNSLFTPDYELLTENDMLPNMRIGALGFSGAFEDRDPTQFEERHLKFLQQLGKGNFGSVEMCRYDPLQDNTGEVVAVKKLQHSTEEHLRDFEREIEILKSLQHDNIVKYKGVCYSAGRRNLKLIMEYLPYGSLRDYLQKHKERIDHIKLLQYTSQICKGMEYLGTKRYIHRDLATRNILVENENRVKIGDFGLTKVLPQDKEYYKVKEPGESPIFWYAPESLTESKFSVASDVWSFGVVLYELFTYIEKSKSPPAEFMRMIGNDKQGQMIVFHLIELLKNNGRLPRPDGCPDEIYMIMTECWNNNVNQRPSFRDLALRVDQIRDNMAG
Protocol notes: Z'-LYTE enzyme activity assay (SelectScreen Kinase Profiling), JAK2
Run conditions: IC50 JAK2, ATP at app. Km
Measurement label: IC50 (nM)
Express your answer in nM, writing the number without its unit.

Input: GET /values?readout=IC50&item= CCS(=O)(=O)N1CC2(CCC2(CC#N)n2cc(-c3ncnc4[nH]ccc34)cn2)C1 (centres unmarked) [WU3]
Output: 35.1

Input: GET /values?readout=IC50&item= CCS(=O)(=O)N1CCC2(CC1)CCC(CC#N)(n1cc(-c3ncnc4[nH]ccc34)cn1)CC2 [WU7]
Output: 0.867

Input: GET /values?readout=IC50&item= N#CCC1(n2cc(-c3ncnc4[nH]ccc34)cn2)CCS(=O)(=O)CC1 [WU8]
Output: 0.535

Input: GET /values?readout=IC50&item= CCS(=O)(=O)N1CC2(C1)CC(CC#N)(n1cc(-c3ncnc4[nH]ccc34)cn1)C2 [WU1]
Output: 8.22

Input: GET /values?readout=IC50&item= N#CCC1(n2cc(-c3ncnc4[nH]ccc34)cn2)CC2(CC(NS(=O)(=O)C(F)(F)F)C2)C1 (centres unmarked) [WU6]
Output: 0.347

* * *

Assign pIC50 to each entry below.
Target or system: TYK2 (Homo sapiens)
Sequence (P29597 whole entry): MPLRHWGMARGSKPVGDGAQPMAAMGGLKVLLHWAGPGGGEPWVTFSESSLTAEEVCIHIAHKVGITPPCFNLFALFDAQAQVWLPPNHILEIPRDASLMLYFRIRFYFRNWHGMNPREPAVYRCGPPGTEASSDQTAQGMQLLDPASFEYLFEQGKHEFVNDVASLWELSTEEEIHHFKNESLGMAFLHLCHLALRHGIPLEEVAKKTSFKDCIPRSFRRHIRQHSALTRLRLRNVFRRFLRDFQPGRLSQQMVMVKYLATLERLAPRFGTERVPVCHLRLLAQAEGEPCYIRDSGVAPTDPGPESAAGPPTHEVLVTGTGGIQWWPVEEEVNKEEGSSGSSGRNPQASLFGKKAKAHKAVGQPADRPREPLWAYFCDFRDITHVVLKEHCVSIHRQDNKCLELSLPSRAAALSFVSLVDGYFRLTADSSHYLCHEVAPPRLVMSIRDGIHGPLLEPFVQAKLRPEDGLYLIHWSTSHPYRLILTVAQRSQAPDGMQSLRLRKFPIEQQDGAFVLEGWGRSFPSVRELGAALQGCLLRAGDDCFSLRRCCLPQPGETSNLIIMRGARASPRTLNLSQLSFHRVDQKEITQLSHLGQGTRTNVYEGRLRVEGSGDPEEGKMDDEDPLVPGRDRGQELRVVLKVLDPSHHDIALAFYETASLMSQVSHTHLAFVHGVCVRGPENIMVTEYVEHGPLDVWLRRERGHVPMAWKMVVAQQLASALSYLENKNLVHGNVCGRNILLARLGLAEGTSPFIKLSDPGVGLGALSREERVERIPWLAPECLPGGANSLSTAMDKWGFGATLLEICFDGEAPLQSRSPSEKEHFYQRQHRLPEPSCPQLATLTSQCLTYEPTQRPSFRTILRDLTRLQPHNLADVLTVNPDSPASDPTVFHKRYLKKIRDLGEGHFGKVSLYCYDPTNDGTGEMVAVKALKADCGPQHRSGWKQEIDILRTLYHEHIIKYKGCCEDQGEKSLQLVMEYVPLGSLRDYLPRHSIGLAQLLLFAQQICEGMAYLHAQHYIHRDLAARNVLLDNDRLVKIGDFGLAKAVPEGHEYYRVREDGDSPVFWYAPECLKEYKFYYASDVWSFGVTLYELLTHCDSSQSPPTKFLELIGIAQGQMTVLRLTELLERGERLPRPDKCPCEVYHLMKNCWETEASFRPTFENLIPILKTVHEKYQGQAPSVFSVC
Protocol notes: Z'-LYTE enzyme activity assay (SelectScreen Kinase Profiling), TYK2
Run conditions: IC50 TYK2, ATP at app. Km
By convention, pIC50 is the negative base-10 log of a molar concentration.

Input: GET /values?readout=pIC50&item= CCS(=O)(=O)N1CC(CC#N)(n2cc(-c3ncnc4[nH]ccc34)cn2)C1 [BARI, baricitinib, reference compound]
Output: 8.66

Input: GET /values?readout=pIC50&item= CCS(=O)(=O)N1CC2(CCC2(CC#N)n2cc(-c3ncnc4[nH]ccc34)cn2)C1 (stereo not shown)
Output: 6.24

Input: GET /values?readout=pIC50&item= CCS(=O)(=O)N1CCC12CC(CC#N)(n1cc(-c3ncnc4[nH]ccc34)cn1)C2 (stereo not shown)
Output: 6.24

Input: GET /values?readout=pIC50&item= `N#CCC1(n2cc(-c3ncnc4[nH]ccc34)cn2)CS(=O)(=O)C1`
Output: 8.65
